- experimental.protocol: Solubility of the compound in FaSSIF
- Assay type: physicochemical
observable: log10 solubility at 1 h (log10 of the value in µg/mL)

• c1cc([C@H]2CC[C@]3(CC2)OO[C@]2(O3)C3CC4CC(C3)CC2C4)ccc1OCCN1CCOCC1 = 2.08
• FC1CCN(Cc2ccc(C3CCC4(CC3)OOC3(OO4)C4CC5CC(C4)CC3C5)cc2)CC1 (stereo not given) = 1.17
• c1cc([C@H]2CCCC3(C2)OOC2(OO3)C3CC4CC(C3)CC2C4)ccc1CN1CCOCC1 (stereo not given in full) = 2.39
• FC1CCN(Cc2ccc([C@H]3CCCC4(C3)OOC3(OO4)C4CC5CC(C4)CC3C5)cc2)CC1 (stereo not given in full) = 2.28
• c1cc(C2CCC3(CC2)OOC2(OO3)C3CC4CC(C3)CC2C4)ccc1CN1CCOCC1 (stereo not given) = 1.38
• FC1CCN(CCOc2ccc([C@H]3CCCC4(C3)OOC3(OO4)C4CC5CC(C4)CC3C5)cc2)CC1 (stereo not given in full) = 2.62
• c1cc([C@H]2CCCC3(C2)OOC2(OO3)C3CC4CC(C3)CC2C4)ccc1OCCN1CCOCC1 (stereo not given in full) = 1.84
• FC1CCN(CCOc2ccc(C3CCC4(CC3)OOC3(OO4)C4CC5CC(C4)CC3C5)cc2)CC1 (stereo not given) = 2.33
• FC1CCN(Cc2ccc([C@@H]3CCCC4(C3)OOC3(OO4)C4CC5CC(C4)CC3C5)cc2)CC1 (stereo not given in full) = 2.29
• c1cc([C@@H]2CCCC3(C2)OOC2(OO3)C3CC4CC(C3)CC2C4)ccc1CN1CCOCC1 (stereo not given in full) = 2.51
